- Test system: human HL60 cells
- PROTOCOL_NOTES: SWATH-MS proteomics, differential protein representation, akirin2 KO vs WT HL60 cells
- Format: cell-based
- SETUP_CONDITIONS: KO vs WT HL60 cells; sheet "Under-represented in KO"
MEASURE: Log (Fold Change)

INSERT INTO results (molecule, result) VALUES
  ('sp¦Q9Y617¦SERC_HUMAN (protein, UniProt Q9Y617 1-370, looked up) Phosphoserine aminotransferase: MDAPRQVVNFGPGPAKLPHSVLLEIQKELLDYKGVGISVLEMSHRSSDFAKIINNTENLVRELLAVPDNYKVIFLQGGGCGQFSAVPLNLIGLKAGRCADYVVTGAWSAKAAEEAKKFGTINIVHPKLGSYTKIPDPSTWNLNPDASYVYYCANETVHGVEFDFIPDVKGAVLVCDMSSNFLSKPVDVSKFGVIFAGAQKNVGSAGVTVVIVRDDLLGFALRECPSVLEYKVQAGNSSLYNTPPCFSIYVMGLVLEWIKNNGGAAAMEKLSSIKSQTIYEIIDNSQGFYVCPVEPQNRSKMNIPFRIGNAKGDDALEKRFLDKALELNMLSLKGHRSVGGIRASLYNAVTIEDVQKLAAFMKKFLEMHQL', -0.3039);
